For each entry below, report its IC50 value.
# target-of-assay: LRRK2 G2019S (Homo sapiens, UniProt Q5S007, G2019S)
# Sequence (Q5S007 whole entry G2019S): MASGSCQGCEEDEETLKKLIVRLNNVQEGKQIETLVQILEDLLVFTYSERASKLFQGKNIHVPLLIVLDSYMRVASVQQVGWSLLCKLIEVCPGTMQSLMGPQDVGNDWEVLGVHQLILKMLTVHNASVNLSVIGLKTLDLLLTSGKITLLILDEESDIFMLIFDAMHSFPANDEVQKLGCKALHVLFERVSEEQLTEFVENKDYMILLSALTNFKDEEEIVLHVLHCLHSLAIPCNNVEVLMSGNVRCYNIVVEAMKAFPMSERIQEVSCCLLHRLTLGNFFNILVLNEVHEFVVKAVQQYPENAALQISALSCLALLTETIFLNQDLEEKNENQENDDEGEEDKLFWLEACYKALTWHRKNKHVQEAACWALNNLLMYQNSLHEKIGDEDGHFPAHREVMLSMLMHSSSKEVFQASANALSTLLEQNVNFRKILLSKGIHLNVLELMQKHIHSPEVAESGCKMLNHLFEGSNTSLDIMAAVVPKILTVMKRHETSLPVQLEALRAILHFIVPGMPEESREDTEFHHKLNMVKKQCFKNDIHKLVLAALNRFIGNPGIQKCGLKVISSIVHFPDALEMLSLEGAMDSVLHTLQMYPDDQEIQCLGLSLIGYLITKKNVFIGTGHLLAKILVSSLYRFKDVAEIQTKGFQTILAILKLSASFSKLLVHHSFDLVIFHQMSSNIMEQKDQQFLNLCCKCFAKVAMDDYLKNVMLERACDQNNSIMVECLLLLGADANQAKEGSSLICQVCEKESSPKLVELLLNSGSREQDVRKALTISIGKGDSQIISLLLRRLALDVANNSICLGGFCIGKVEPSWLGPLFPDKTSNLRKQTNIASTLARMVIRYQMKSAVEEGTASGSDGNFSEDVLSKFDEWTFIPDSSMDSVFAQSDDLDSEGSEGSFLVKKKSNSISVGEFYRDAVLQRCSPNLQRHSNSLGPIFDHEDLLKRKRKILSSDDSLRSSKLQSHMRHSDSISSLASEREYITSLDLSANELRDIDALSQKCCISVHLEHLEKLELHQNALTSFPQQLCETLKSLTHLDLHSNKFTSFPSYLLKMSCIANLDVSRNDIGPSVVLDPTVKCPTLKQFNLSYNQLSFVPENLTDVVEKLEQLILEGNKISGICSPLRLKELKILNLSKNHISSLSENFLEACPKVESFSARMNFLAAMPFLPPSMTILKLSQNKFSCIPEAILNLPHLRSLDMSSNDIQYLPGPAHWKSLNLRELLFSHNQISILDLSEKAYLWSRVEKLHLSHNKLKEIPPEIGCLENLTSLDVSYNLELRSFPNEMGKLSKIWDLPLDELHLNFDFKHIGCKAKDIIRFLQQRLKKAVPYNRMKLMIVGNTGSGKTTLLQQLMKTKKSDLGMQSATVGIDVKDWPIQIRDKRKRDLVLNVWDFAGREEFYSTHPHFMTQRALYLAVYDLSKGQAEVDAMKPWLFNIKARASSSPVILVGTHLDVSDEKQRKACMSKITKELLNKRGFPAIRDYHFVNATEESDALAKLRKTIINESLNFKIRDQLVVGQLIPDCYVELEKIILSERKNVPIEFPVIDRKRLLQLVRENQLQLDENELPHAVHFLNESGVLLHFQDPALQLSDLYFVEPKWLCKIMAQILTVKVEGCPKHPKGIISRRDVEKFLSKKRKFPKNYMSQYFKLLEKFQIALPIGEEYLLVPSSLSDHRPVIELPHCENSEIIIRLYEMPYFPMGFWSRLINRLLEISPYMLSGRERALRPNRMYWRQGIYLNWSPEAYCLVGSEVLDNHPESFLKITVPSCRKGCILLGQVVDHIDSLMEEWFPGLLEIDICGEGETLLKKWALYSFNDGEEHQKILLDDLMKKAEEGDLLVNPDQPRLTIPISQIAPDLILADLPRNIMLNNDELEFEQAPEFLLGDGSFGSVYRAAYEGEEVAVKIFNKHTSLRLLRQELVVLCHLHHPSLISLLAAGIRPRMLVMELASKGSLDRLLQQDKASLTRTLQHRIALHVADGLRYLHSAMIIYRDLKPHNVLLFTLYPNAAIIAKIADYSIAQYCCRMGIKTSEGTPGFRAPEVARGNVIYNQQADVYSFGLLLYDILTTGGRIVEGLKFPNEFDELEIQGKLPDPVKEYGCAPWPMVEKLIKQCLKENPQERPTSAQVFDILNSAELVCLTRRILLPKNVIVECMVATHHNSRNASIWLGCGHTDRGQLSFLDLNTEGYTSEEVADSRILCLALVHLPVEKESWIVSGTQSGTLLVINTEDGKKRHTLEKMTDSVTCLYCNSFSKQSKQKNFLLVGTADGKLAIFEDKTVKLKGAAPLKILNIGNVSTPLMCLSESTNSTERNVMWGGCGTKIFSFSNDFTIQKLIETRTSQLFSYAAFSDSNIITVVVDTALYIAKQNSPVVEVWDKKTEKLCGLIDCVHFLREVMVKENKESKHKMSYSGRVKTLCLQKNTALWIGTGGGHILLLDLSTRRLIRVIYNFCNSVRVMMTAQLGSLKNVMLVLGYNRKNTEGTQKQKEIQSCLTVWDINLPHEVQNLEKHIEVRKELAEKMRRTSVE
# protocol-description: LRRK2 G2019S Km ATP LanthaScreen assay
# Type: biochemical
# assay-conditions: read-out: LRRK2 pIC50 (converted)
Numbers only, in nM.

CCC1C(C(=O)Nc2cc3cc(C(C)CC#N)c(Cl)cc3cn2)C1c1cnn(C)c1 (single isomer, unassigned) [Ex-9.15] ... 0.427
CC(C)(O)C1CC1C(=O)Nc1cc2cc(C3CCN(C4(C)COCC4F)CC3)c(Cl)cc2cn1 (single isomer, unassigned) [Ex-6.28] ... 0.363
Cc1nn(C)cc1CC(=O)Nc1cc2cc(C3CCN(C4(C)COCC4O)CC3)c(Cl)cc2cn1 (single isomer, unassigned) ... 0.112
CCC(=O)N1CCC(C(C)C(=O)Nc2cc3cc(C4(C#N)CC45CC5)ccc3cn2)CC1 (centres unmarked) [Ex-2.112] ... 135
CC1(N2CCC(c3cc4cc(NC(=O)C5CCC6(CCC6)OC5)ncc4cc3Cl)CC2)COCC1O (single isomer, unassigned) [Ex-4.23] ... 2.34
Cn1cc(C(=O)Nc2cc3cc(C4CCN(C5COC5)CC4)c(Cl)cc3cn2)cn1 ... 5.89
N#CC1(c2ccc3cnc(NC(=O)C4CC45CC5)cc3c2)CC12CC2 (single isomer, unassigned) [Ex-2.2] ... 0.398
Cn1cc(C(=O)Nc2cc3cc(C4(C#N)CC45CC5)ccc3cn2)cn1 (single isomer, unassigned) [Ex-18.15] ... 0.631

I'm hoping you can list IC50 for every compound here, please.
1. CN(C)C1CCC2C(C(=O)Nc3cc4cc(C5CCN(C6(C)COCC6O)CC5)c(Cl)cc4cn3)C21 (single isomer, unassigned) [Ex-4.28]
2. CN1CCOC(CC(=O)Nc2cc3cc(C4(C#N)CC45CC5)ccc3cn2)C1 (single isomer, unassigned)

A)
[0.0813, 20]

I'm hoping you can list IC50 for every compound here, please.
1. N#CC1(c2ccc3cnc(NC(=O)C4CC45CCOC5)cc3c2)CC12CC2 (centres unmarked) [Ex-2.65]
2. CC1CC1C(=O)Nc1cc2cc(C3CCN(C4COC4)CC3)c(Cl)cc2cn1 (single isomer, unassigned) [Ex-9.3]
3. CC1(N2CCC(c3cc4cc(NC(=O)C5CCC6(CCC6)OC5)ncc4cc3Cl)CC2)COCC1O (single isomer, unassigned) [Ex-4.24]
4. O=C(Nc1cc2cc(C3CCN(C4COC4)CC3)c(Cl)cc2cn1)[C@H]1C[C@@H]1F (single isomer, unassigned)

A)
1. 25.7
2. 0.631
3. 0.692
4. 1.12

----------
# target-of-assay: LRRK2 G2019S (Homo sapiens, UniProt Q5S007, G2019S)
# protocol-description: LRRK2 G2019S Km ATP LanthaScreen assay
# Assay type: biochemical
# assay-conditions: read-out: LRRK2 pIC50 (converted)
Rule: IC50 below 3 nM gives 1, anything at or above gives -1.

N#CC1(c2cc3cc(NC(=O)C4CC4c4ccccn4)ncc3cc2F)CC12CC2 (single isomer, unassigned) [Ex-18.13] ... -1

Q) In plain terms, does Cc1cc2cnc(NC(=O)C3CC34CCOC4)cc2cc1C1CCN(C2(C)COCC2F)CC1 (single isomer, unassigned) [Ex-15.13] come in under 3 nM for IC50?
A) 1

Q) In plain terms, does CC1(N2CCC(c3cc4cc(NC(=O)Cn5cc(Cl)cn5)ncc4cc3Cl)CC2)COCC1O (stereo not shown) come in under 3 nM for IC50?
A) 1

Q) In plain terms, does CC(C)(O)C1CC1C(=O)Nc1cc2cc(C3CCN(C4(C)COCC4F)CC3)c(Cl)cc2cn1 (single isomer, unassigned) [Ex-6.27] come in under 3 nM for IC50?
A) -1

----------
For each entry below, report its IC50 value.
# target-of-assay: LRRK2 G2019S (Homo sapiens, UniProt Q5S007, G2019S)
# protocol-description: LRRK2 G2019S Km ATP LanthaScreen assay
# Format: biochemical
# assay-conditions: read-out: LRRK2 pIC50 (converted)
Answers are plain numbers, in nM.

C[C@@]1(N2CC[C@@H](c3cc4cc(NC(=O)[C@H]5CC56CC6)ncc4cc3Cl)[C@H](F)C2)COC[C@@H]1O ... 0.0813
CC(C)(O)C1CC1C(=O)Nc1cc2cc(C3CCN(C4(C)CCOC4)CC3)c(Cl)cc2cn1 (centres unmarked) [Ex-2.24] ... 0.257
CC(C(=O)Nc1cc2cc(C3(C#N)CC34CC4)ccc2cn1)c1cnn(C)c1 (centres unmarked) [Ex-2.109] ... 1.91
CCC1C(C(=O)Nc2cc3cc(C4CCC(N5CC(C)(F)C5)CC4)c(Cl)cc3cn2)C1c1cnn(C)c1 (single isomer, unassigned) [Ex-11.1] ... 0.0813
N#CC1(c2ccc3cnc(NC(=O)C4CC4c4ccccn4)cc3c2)CC12CC2 (centres unmarked) [Ex-2.40] ... 0.575

I'm hoping you can list IC50 for every molecule here, please.
1. CC1C(C(=O)Nc2cc3cc(C4CCN(C5(C)COCC5O)CC4)c(Cl)cc3cn2)C1c1ccccn1 (single isomer, unassigned) [Ex-4.54]
2. O=C(Nc1cc2cc(C3CCC(N4CC(F)C4)CC3)c(Cl)cc2cn1)C1CC1c1ccccn1 (single isomer, unassigned) [Ex-5.1]
3. N#CC1(c2ccc3cnc(NC(=O)Cc4cnn(C(F)F)c4)cc3c2)CC12CC2 (single isomer, unassigned)

A)
9.12
52.5
7.08

I'm hoping you can list IC50 for every molecule here, please.
1. N#CC1(c2cc3cc(NC(=O)C4CC4c4ccccn4)ncc3cc2F)CC12CC2 (single isomer, unassigned) [Ex-18.14]
2. CC(C)n1nccc1C1CC1C(=O)Nc1cc2cc(C3CCN(C4(C)COCC4O)CC3)c(Cl)cc2cn1 (single isomer, unassigned) [Ex-4.64]
3. CC(=O)Nc1cc2cc(C3CCN(C4COC4)CC3)c(Cl)cc2cn1
4. CC(C(=O)Nc1cc2cc(C3(C#N)CC34CC4)ccc2cn1)c1cnn(C)c1 (centres unmarked) [Ex-2.108]

A)
60.3
2.45
11.5
2.95

I'm hoping you can list IC50 for every molecule here, please.
1. N#CC1(c2ccc3cnc(NC(=O)C4C5Oc6cc(Cl)ncc6C54)cc3c2)CC12CC2 (single isomer, unassigned)
2. CC1(N2CCC(c3cc4cc(NC(=O)c5cnn(C67CC(C6)C7)c5)ncc4cc3Cl)CC2)COCC1O (single isomer, unassigned)

A)
1: 28.2; 2: 1.62

----------
# target-of-assay: LRRK2 G2019S (Homo sapiens, UniProt Q5S007, G2019S)
# protocol-description: LRRK2 G2019S Km ATP LanthaScreen assay
# Type: biochemical
# assay-conditions: read-out: LRRK2 pIC50 (converted)
Rule: IC50 below 3 nM gives 1.0, anything at or above gives 0.0.

Example entries and their recorded answers appear below.
O=C(Nc1cc2cc(C3CCN(C4COCC4O)CC3)c(Cl)cc2cn1)C1CC12CCOCC2 (single isomer, unassigned) [Ex-4.2] ... 1.0
CCC(=O)N1CC(C(=O)Nc2cc3cc(C4(C#N)CC45CC5)ccc3cn2)C1 (single isomer, unassigned) ... 0.0
CN(C)C1CCC2C(C(=O)Nc3cc4cc(C5CCN(C6(C)COCC6O)CC5)c(Cl)cc4cn3)C21 (single isomer, unassigned) [Ex-4.27] ... 1.0
Cn1ccc(C2CC2C(=O)Nc2cc3cc(C4CCN(C5(C)COCC5F)CC4)c(Cl)cc3cn2)n1 (stereo not shown) ... 1.0
CC1(C)CC(C(=O)Nc2cc3cc(C4CCC(N5CCC(F)C5)CC4)c(Cl)cc3cn2)CCO1 (single isomer, unassigned) [Ex-5.13] ... 0.0
CCC1C(C(=O)Nc2cc3cc(C4CC(C#N)C4)c(Cl)cc3cn2)C1c1cnn(C)c1 (stereo not shown) [Ex-9.17] ... 0.0

From here, focus on the item given below.
Q) In plain terms, does O=C(Nc1cc2cc(C3CCN(C4COCC4O)CC3)c(Cl)cc2cn1)C1CC12CCOCC2 (single isomer, unassigned) [Ex-4.1] come in under 3 nM for IC50?
A) 1.0

----------
For each entry below, report its log10 IC50 value.
# target-of-assay: LRRK2 G2019S (Homo sapiens, UniProt Q5S007, G2019S)
# protocol-description: LRRK2 G2019S Km ATP LanthaScreen assay
# Format: biochemical
# assay-conditions: read-out: LRRK2 pIC50 (converted)
Form field - Quantity: IC50; Unit: nM; Scale: log10

I'm hoping you can list log10 IC50 for every compound here, please.
1. CC1(C)CC(C(=O)Nc2cc3cc(C4CCN(C5(C)COCC5F)CC4)c(Cl)cc3cn2)CCO1 (single isomer, unassigned) [Ex-6.38]
2. Cc1cc2cnc(NC(=O)C3CC3c3ccn(C)n3)cc2cc1C1CCN(C2(C)COCC2F)CC1 (single isomer, unassigned)
3. Cc1cc2cnc(NC(=O)C3CCOC(C)(C)C3)cc2cc1C1CCN(C2(C)COCC2O)CC1 (stereo not shown) [Ex-2.50]
4. Cn1cc(N2CCC(C(=O)Nc3cc4cc(C5(C#N)CC56CC6)ccc4cn3)C2)cn1 (stereo not shown) [Ex-2.77]
5. CC(C)OC1CCC(C(=O)Nc2cc3cc(C4(C#N)CC45CC5)ccc3cn2)OC1 (single isomer, unassigned)
6. Cn1ccc(C2CC2C(=O)Nc2cc3cc(C4(C#N)CC45CC5)ccc3cn2)n1 (stereo not shown) [Ex-2.71]
7. CC1(C)CC1(C#N)c1ccc2cnc(NC(=O)C3CC3)cc2c1 (single isomer, unassigned) [Ex-18.3]

A)
[-0.06, -1.09, 0.87, 1.01, 1.38, 0.76, 1.38]
